Please provide measured PBM binding z-score for the entries that follow.
system: PPARg:RXRa (NR concentration 180 nM, RXRa partner concentration 90 nM); assay: PBM binding z-score (relative to random genomic background probes); higher = stronger binding; sequences stand for … in GC…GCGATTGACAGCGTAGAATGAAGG
One number for each entry.

ACTAGTTGCTCAGCTGAGGTCACACACAATTCGG	1.17

Could you report PBM binding z-score for every entry in the following list?
1. CCTGCTAGTTCATGGTCAGCTAATCTACAGTATG
2. TTACAAAGGTGAGCTGAGGTCGTTGATCCAACTC
3. CGTCCAAGGTAAGAGAGGTCAGTGAATGCCGAGT
4. AGAATGAGGTTAAGATTAGGGAAACAGAATACAT
5. CCTAGCAGGCCAGGGTCACCCAAGCATTTCGCTT

1. -0.348
2. 1.57
3. 0.401
4. 2.52
5. 1.34

###

test system: VDR homodimer (NR concentration 270 nM); assay: PBM binding z-score (relative to random genomic background probes); higher = stronger binding; sequences stand for … in GC…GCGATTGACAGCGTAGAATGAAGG
Please provide measured PBM binding z-score for the entries that follow.
Give bare numbers.

Below are worked cases with known answers.
ATATGTAGGTTAAGGGTCATGCAGGTTGGTTCGC	3.81
CCTACTGGGCCAAAGGTCTTTGATTCCAATGCTC	-0.573
ATATGTAGGTTACATGCGGGTCATTCAGGCTATG	2.05
CAAAATAGGTCAAGAGGTCAAAGTCCGCTTCCCG	3.91
CGAACTAGGTCAAAGGACTGTGAAAGGCGACGTA	-0.0761

Could you report PBM binding z-score for every entry in the following list?
1. TGGAGTAGGTTACGGGGGCATTCAGGGATGAAGA
2. TCGAGTAGGTTACGGGGGCATTGAGGGATGAAGA
3. ATCTCTAGGTAAATGTTCAGTGAATCCCGAGGAT
4. CGAACTAGGTCACCAGGCCAGTGAAGAGGTTGGA
5. CCTAGATGGTCAGGAGGTCACACACCGGATATGA
6. CGAACTAGGTGACCAGGACAGTGAAGAGGTTGGA
7. GGAACGGGGGCATTCGAGTTGATAGCATGGCGAT

3.94
3.13
-0.0904
0.372
2.68
-0.155
4.57

###

Please provide measured PBM binding z-score for the entries that follow.
system: RARg homodimer (NR concentration 270 nM); assay: PBM binding z-score (relative to random genomic background probes); higher = stronger binding; sequences stand for … in GC…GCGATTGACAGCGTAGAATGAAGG
Answers are plain numbers.

Below are worked cases with known answers.
TATTGTAGATCAAAGGTTAAGAAAGCCGAAGCCT	1.28
TAGCCTAGGTCATTGGGCTAGTATAGTACGCATC	4.2

Could you report PBM binding z-score for every entry in the following list?
1. CGAACTAGGTCAGAGGACAGTGAAAGGCGACGTA
2. CGTCGGAGGACAACAGGAGGTCAGAGCTGCCAGA
3. CCGAGTAGGTTACGATGGGGCATTCAGTGCGAAT
4. ACAGACAGGTGAGTGAAGGTCACTCAGCTGGACG
5. CAATCTAGGTCAAAGGTCAAAGTCGAGCCAACCA
6. CGTCAAAGTTCAAGGTTACGTAACAGAAAGCAGC

3.91
3.69
0.851
3.72
7.21
6.33

Could you report PBM binding z-score for every entry in the following list?
1. CGTCAAAGTTCAAGCTAACGTAACAGAAAGCAGC
2. CCGAGTAGCTTACGAGGGGGCATTCAGTGCGAAT
3. CGAACTAGGACATCCAGGACAGTGAATACATTGA
4. AGTCAAAGTTCAGTAGGTAACGTAAGATTCAGCT
5. TCTGCTAGGTCAGGTGGTCAGCTAACGAGCTGCC
6. TTATCAAGGTGAAAGGTCGTTGATGCACGCCTTG
7. TCGAGTACGTTACGGGGGCATTCAGGGATGAAGA

[6.4, 0.544, 0.695, 4.28, 3.58, 2.44, 0.926]

Could you report PBM binding z-score for every entry in the following list?
1. CCTTACGGGTCGCTGACAGGTTATAGCATTTGGA
2. TAGCCTAGGTCAGATCGGGCGAGTATACGCTATA
3. CCGAGTAGGTTAAGAGGGGGCATTCAGTGCGAAT

[1.01, 3.68, 2.49]

Could you report PBM binding z-score for every entry in the following list?
1. GCTATTAGGTGAAAGGGCAACCGAATGATTCTCG
2. CGTACTAGGTCACCAGGACAGTGAAGAGGTTGGA
3. ATATGTAGGTTAGCGGGGGTCATTCAGACTAGGC
4. TAGCCTAGGTCATGGGCCTGTATACCACGCGAAC

[1.75, 5.34, 4.26, 4.67]
